Tested on: HCT-15 colon
Test: NCI tumour cell line growth inhibition, 48 h
assay.readout: TGI

Consider the following illustrative entries.
compound	TGI
Cc1ccc2[nH]c3c(c2c1)C1CCC(C(C)(C)C)CC1C1C(=O)N(c2ccc4c(c2)OCO4)C(=O)C31 (centres undefined)	16.5 µM
C[C@H]1[C@H]2[C@H]3CC[C@@H]4[C@@]5(C)C/C(=C/c6cccnc6)C(=O)C(C)(C)[C@@H]5CC[C@@]4(C)[C@]3(C)CC[C@]23CO[C@]1(C)[C@@H](C(=O)/C=C\c1cccnc1)C3	2.56 µM
O=c1c2cc([N+](=O)[O-])ccc2nc2n1CCCCC2	> 100 µM

TGI lookup needed for "CC[C@@H]1C[C@H]2CC3c4[nH]c5ccc(O)cc5c4CCN(C2)C31" , thanks. > 100 µM

Using the record for "COc1cc(N(Cc2ccc3nc(OC)c(OC)nc3c2)Cc2ccc3nc(OC)c(OC)nc3c2)cc(OC)c1OC" , report its TGI. > 50 µM

Reported TGI, compound "CN(CC(=O)O)c1ncc2c(n1)-c1ccccc1OC2" : ____ > 100 µM

Entry "O=C(c1cc2c(c3ccccc13)NCCN=C2C(F)(F)F)C(F)(F)F" : reported TGI = ? > 100 µM

Look at this compound and give its reported TGI. "COc1ccc(CNc2nc3cc(N)cc(N)c3nc2-c2ccccc2)cc1" 34.5 µM

State the recorded TGI for this entry: "O=c1[nH]cnc2c1ncn2[C@@H]1C[C@H]1CO" > 100 µM
